Target: T1, human BCMA on NCI-H929, OPM2 and Raji cells (human, UniProt Q02223 1-184)
T1 construct: endogenous BCMA of human cell lines; also called TNFRSF17; CD269
T1 chain: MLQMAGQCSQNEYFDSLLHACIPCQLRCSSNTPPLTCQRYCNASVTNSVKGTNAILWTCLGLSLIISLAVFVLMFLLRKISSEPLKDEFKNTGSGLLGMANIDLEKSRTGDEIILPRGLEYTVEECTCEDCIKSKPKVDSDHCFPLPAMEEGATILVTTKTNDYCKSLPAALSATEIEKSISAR
Assay: flow cytometry, NCI-H929 cells
VALUE_TYPE: pKd
The quantity pKd is defined as the negative base-10 logarithm of the molar concentration.

Examples from the recorded data:
BINDER	EXPERIMENTAL_VALUE
AB216 (antibody, human IgG1, kappa, V domains shown, IgG1 kappa) VH: QVQLVQSGAEVKKPGSSVKVSCKASGGTFSNYWIHWVRQAPGQGLEWMGATYRIQSDTYYNQKYKSRVTITADKSTSTAYMELSSLRSEDTAVYYCARGAVYHGYDVIDNWGQGTLVTVSS VL: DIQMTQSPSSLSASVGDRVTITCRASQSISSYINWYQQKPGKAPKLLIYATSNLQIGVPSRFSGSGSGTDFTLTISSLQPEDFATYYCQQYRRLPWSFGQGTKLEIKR	8.52
AB213 (antibody, human IgG1, kappa, V domains shown, IgG1 kappa) VH: QVQLVQSGAEVKKPGSSVKVSCKASGGTFTNYWIHWVRQAPGQGLEWMGGTYRSHSTTYYNQKFKSRVTITADKSTSTAYMELSSLRSEDTAVYYCARGAVYHGYDVIDNWGQGTLVTVSS VL: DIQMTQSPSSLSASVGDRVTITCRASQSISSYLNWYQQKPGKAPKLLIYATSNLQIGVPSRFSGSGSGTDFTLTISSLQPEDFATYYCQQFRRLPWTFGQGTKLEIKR	8.37

Moving on to another binder below.
IN: Quick check: pKd of AB218 (antibody, human IgG1, kappa, V domains shown, IgG1 kappa) VH: QVQLVQSGAEVKKPGSSVKVSCKASGGTFSNYWIHWVRQAPGQGLEWMGATYRSQSTTYYNQKFKSRVTITADKSTSTAYMELSSLRSEDTAVYYCARGAVYHGYDVIDNWGQGTLVTVSS VL: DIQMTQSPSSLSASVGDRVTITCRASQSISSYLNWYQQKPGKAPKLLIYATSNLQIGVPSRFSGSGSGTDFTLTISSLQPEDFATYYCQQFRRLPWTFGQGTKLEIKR ?
OUT: 9.01
